Assay: Trial B: pharmacokinetics following single and repeated doses in healthy young male subjects
Type: in vivo, humans
Details: male, human, in vivo, oral, 100 mg, single dose 100 mg eslicarbazepine acetate, n=6; read-out: Mean Cmax (%CV)
VALUE KIND: Cmax (ng/mL)

MOLECULE: NC(=O)N1c2ccccc2C[C@H](O)c2ccccc21 [eslicarbazepine]
VALUE KIND: Cmax
RECORDED MEASUREMENT: 1500

* * *

Assay: Trial B: pharmacokinetics following single and repeated doses in healthy young male subjects
Assay type: in vivo, humans
Conditions: male, human, in vivo, oral, 1200 mg, single dose 1200 mg eslicarbazepine acetate, n=6; read-out: Mean AUC0-24h (%CV)
VALUE KIND: AUC(0-t) (µg·h/mL)

COMPOUND: NC(=O)N1c2ccccc2C[C@H](O)c2ccccc21 [eslicarbazepine]
UNIT STRING: µg·h/mL
RECORDED MEASUREMENT: 286
